The origin of these recorded values is PubChem BioAssay (NCI).

tested on: TK-10 renal; test: NCI-60 one-dose screen, 48 h (100 = growth as untreated, 0 = no growth, -100 = all killed); conditions: 10 µM unless noted
Compounds without any hit were thinned out: in the full panel of roughly 83,000, 20% have a hit.
Under this convention, YES denotes growth strictly below 80% and NO denotes growth at or above 80%.

Please review the entries below; each comes with its answer.
compound	target-of-assay	group
O=c1cc(-c2nccc3c2[nH]c2ccccc23)c2cc(Cl)ccc2o1	TK-10 renal	NO
CSc1nc(CC(C)C)c(C#N)c(=O)n1C	TK-10 renal	YES
C=CN(C(=O)N1CCN(c2cc3c(cc2F)c(=O)c(C(=O)O)cn3C2CC2)CC1)c1nc(-c2ccc(C)cc2)cs1	TK-10 renal	YES
O=C(Nc1ncc(Cc2ccc(Cl)cc2)s1)c1ccc2c(c1)OCCO2	TK-10 renal	YES
O=[N+]([O-])c1ccc(Oc2cccc3c(Oc4ccc([N+](=O)[O-])cc4[N+](=O)[O-])cccc23)c([N+](=O)[O-])c1	TK-10 renal	NO

Lookup: Determine whether this compound shows growth lower than 80% (ties excluded): `CC(=O)/C(Br)=C/c1ccc(Br)o1`
Found: YES

Lookup: Input `CN1CCN(CCCNC(=O)c2c3c(n4ccccc24)C(=O)c2ncccc2C3=O)CC1` ; condition: growth strictly below 80%. Does it hold?
Found: YES

Lookup: I'd appreciate it if you could check whether `C#CCOc1cc(/C=N/Nc2nc(-c3ccc(OC)cc3)cs2)ccc1O` has growth smaller than 80%.
Found: NO
